Recorded values, source PubChem BioAssay (NCATS).

# System: CP297
# assay: qHTS profiling for inhibitors of Plasmodium falciparum proliferation (AID 504749); note: nearly all actives have a fitted effect of over 60% in size
# measurementParameters: P. falciparum in erythrocytes, SYBR Green DNA, 72 h; series mostly up to 28.7 µM
Results filed as inconclusive are left out. Calls of active or inactive are those of the source. Calls come from the whole dose curve; as a rule, active = well fitted inhibition curve with a large enough effect; inconclusive = small, poorly fitted or top-dose-only effect; inactive = flat fitted curve, though single readings scatter.
The reply should be one of these categories: active, inactive

CCCCCCCCCCCC[N+](C)(C)CCOc1ccccc1 = active
Cc1c(Cl)c(=O)oc2cc(OP(=O)(OCCCl)OCCCl)ccc12 = active
COP(=O)(OC)OC=C(Cl)Cl = inactive
COP(=O)(OC)C(O)C(Cl)(Cl)Cl (stereo unspecified) = inactive
COP(=S)(OC)Oc1ccc(Sc2ccc(OP(=S)(OC)OC)cc2)cc1 = inactive

Look up the recorded call for O=C(NC(=O)c1c(F)cccc1F)Nc1cc(Cl)c(OC(F)(F)C(F)C(F)(F)F)cc1Cl (stereo unspecified) in this test. inactive

Look up the recorded call for ClC1=C(Cl)C2(Cl)C(CBr)CC1(Cl)C2(Cl)Cl (stereo unspecified) in this test. inactive

Look up the recorded call for Cc1ncc2n1-c1ccc(Cl)cc1C(c1ccccc1F)=NC2 in this test. inactive
